test system: A549 cells; assay: Cell migration assay (24-well transwell, laminin); assay type: cell-based, human; settings: Homo sapiens, A549, 6 h, laminin 10 μg/mL in lower well, test compounds 0.39˜100 μM, migrated cells counted, read-out: Inhibitory activity against cell migration
metric name: IC50

Illustrative cases are given below, each with its answer.
Qu. What measured IC50 is associated with `COc1ccccc1CCN(Cc1ccc(C(=O)O)cc1)c1nc2cccc(F)c2s1` on A549 cells?
Ans. > 10 µM

Qu. What measured IC50 is associated with COc1ccc(CCN(c2nc3cccc(C)c3s2)C(C)c2ccc(C(=O)O)cc2)cc1 (centres unmarked) on A549 cells?
Ans. > 10 µM

Qu. What measured IC50 is associated with `COc1ccc(CCN(Cc2ccc(C(=O)O)cc2)c2nc3cccc(F)c3s2)c(Cl)c1` on A549 cells?
Ans. > 10 µM

Consider the additional molecule presented here.
Qu. What measured IC50 is associated with COc1ccc(CCN(c2nc3cccc(F)c3s2)C(C)c2ccc(C(=O)O)cc2)cc1 (centres unmarked) on A549 cells?
Ans. < 1 µM

---

Quick reference: pIC50 of the listed items.
tested on: A549 cells; experiment: Cell migration assay (24-well transwell, laminin); format: cell-based, human; details: Homo sapiens, A549, 6 h, laminin 10 μg/mL in lower well, test compounds 0.39˜100 μM, migrated cells counted, read-out: Inhibitory activity against cell migration
pIC50: −log10 of the molar value.

Qu. What measured pIC50 is associated with O=C(O)c1ccc(CN(CCc2cccc(F)c2)c2nc3cccc(F)c3s2)cc1 [Example 3] on A549 cells?
Ans. < 5.00

Qu. What measured pIC50 is associated with O=C(O)c1ccc(CN(CCc2ccccc2Cl)c2nc3cccc(F)c3s2)cc1 [Example 2] on A549 cells?
Ans. > 6.00

---

Quick reference: pIC50 of the listed items.
tested on: A549 cells; experiment: Cell migration assay (24-well transwell, laminin); format: cell-based, human; conditions: Homo sapiens, A549, 6 h, laminin 10 μg/mL in lower well, test compounds 0.39˜100 μM, migrated cells counted, read-out: Inhibitory activity against cell migration
pIC50: −log10 of the molar value.

Qu. What value of pIC50 has been reported for the following compound? COc1ccc(CCN(Cc2ccc(C(=O)O)cc2)c2nc3ccc([N+](=O)[O-])cc3s2)cc1 [Example 79]
Ans. > 6.00

Qu. What value of pIC50 has been reported for the following compound? COc1cc(C)c(CCN(Cc2ccc(C(=O)O)cc2)c2nc3cccc(F)c3s2)cc1C(C)C [Example 44]
Ans. < 5.00

---

tested on: A549 cells; test: Cell migration assay (24-well transwell, laminin); format: cell-based, human; settings: Homo sapiens, A549, 6 h, laminin 10 μg/mL in lower well, test compounds 0.39˜100 μM, migrated cells counted, read-out: Inhibitory activity against cell migration
pIC50: −log10 of the molar value.
Quick reference: pIC50 of the listed items.

Illustrative cases are given below, each with its answer.
Qu. What value of pIC50 has been reported for the following compound? `COc1ccc(CCN(Cc2ccc(C(=O)O)cc2)c2nc3cccc(F)c3s2)cc1Br`
Ans. < 5.00

Qu. What value of pIC50 has been reported for the following compound? `COc1ccc(CCN(Cc2ccc(C(=O)O)cc2)c2nc3cc(C(F)(F)F)ccc3s2)cc1`
Ans. > 6.00

Qu. What value of pIC50 has been reported for the following compound? CCC(c1ccc(C(=O)O)cc1)N(CCc1ccc(OC)cc1C)c1nc2cccc(F)c2s1 (stereo not drawn)
Ans. < 5.00

Qu. What value of pIC50 has been reported for the following compound? `COc1cc(F)c(CCN(Cc2ccc(C(=O)O)cc2)c2nc3cccc(F)c3s2)cc1F`
Ans. > 6.00

Qu. What value of pIC50 has been reported for the following compound? COc1ccc(CCN(c2nc3cccc(F)c3s2)C(C)c2ccc(C(=O)O)cc2)cc1F (stereo not drawn)
Ans. < 5.00

New cases:
Qu. What value of pIC50 has been reported for the following compound? `COc1ccc(CCN(Cc2ccc(C(=O)O)cc2)c2nc3cccc(F)c3s2)cc1`
Ans. > 6.00

Qu. What value of pIC50 has been reported for the following compound? COc1ccc(CCN(c2nc3cc(C(F)(F)F)ccc3s2)C(C)c2ccc(C(=O)O)cc2)cc1 (stereo not drawn)
Ans. > 6.00

Qu. What value of pIC50 has been reported for the following compound? `COc1ccc(CCN(Cc2ccc(C(=O)O)cc2)c2nc3ccc(C(=O)O)cc3s2)cc1`
Ans. < 5.00

Qu. What value of pIC50 has been reported for the following compound? `COc1cc(F)c(CCN(Cc2ccc(C(=O)O)cc2)c2nc3cccc(F)c3s2)c(F)c1`
Ans. > 6.00

Qu. What value of pIC50 has been reported for the following compound? `CC(C)COc1ccc(CCN(Cc2ccc(C(=O)O)cc2)c2nc3cccc(F)c3s2)cc1`
Ans. 5.00 to 6.00

Qu. What value of pIC50 has been reported for the following compound? `O=C(O)c1ccc(CN(CCc2cc(F)c(F)c(F)c2)c2nc3cccc(F)c3s2)cc1`
Ans. < 5.00

Qu. What value of pIC50 has been reported for the following compound? `CC(C)c1ccc(CCN(Cc2ccc(C(=O)O)cc2)c2nc3cccc(F)c3s2)cc1`
Ans. < 5.00

Qu. What value of pIC50 has been reported for the following compound? `O=C(O)c1ccc(CN(CCc2cccc(Cl)c2)c2nc3cccc(F)c3s2)cc1`
Ans. < 5.00

Qu. What value of pIC50 has been reported for the following compound? CCC(c1ccc(C(=O)O)cc1)N(CCc1ccc(OC)cc1)c1nc2cccc(F)c2s1 (stereo not drawn)
Ans. > 6.00

Qu. What value of pIC50 has been reported for the following compound? COc1ccc(CCN(c2nc3ccc(Cl)cc3s2)C(C)c2ccc(C(=O)O)cc2)cc1 (stereo not drawn)
Ans. < 5.00

Qu. What value of pIC50 has been reported for the following compound? `O=C(O)c1ccc(CN(CCc2ccc(OCC3CC3)cc2)c2nc3cccc(F)c3s2)cc1`
Ans. > 6.00

Qu. What value of pIC50 has been reported for the following compound? `COc1ccc(CCN(Cc2ccc(C(=O)O)cc2)c2nc3cccc(F)c3s2)c(F)c1F`
Ans. > 6.00

Qu. What value of pIC50 has been reported for the following compound? `COc1ccc(OC)c(CCN(Cc2ccc(C(=O)O)cc2)c2nc3cccc(F)c3s2)c1`
Ans. < 5.00

Qu. What value of pIC50 has been reported for the following compound? `O=C(O)c1ccc(CN(CCc2ccc(Cl)cc2Cl)c2nc3cccc(F)c3s2)cc1`
Ans. < 5.00

Qu. What value of pIC50 has been reported for the following compound? COc1ccc(CCN(c2nc3cc(Cl)ccc3s2)C(C)c2ccc(C(=O)O)cc2)cc1 (stereo not drawn)
Ans. < 5.00

Qu. What value of pIC50 has been reported for the following compound? COc1ccc(CCN(c2nc3cccc(F)c3s2)C(C)c2ccc(C(=O)O)cc2)cc1Br (stereo not drawn)
Ans. < 5.00

Qu. What value of pIC50 has been reported for the following compound? `O=C(O)c1ccc(CN(CCc2ccc(OCC3CCCCC3)cc2)c2nc3cccc(F)c3s2)cc1`
Ans. < 5.00

Qu. What value of pIC50 has been reported for the following compound? `O=C(O)c1ccc(CN(CCc2cc(F)ccc2F)c2nc3cccc(F)c3s2)cc1`
Ans. < 5.00
